System name: σ1 receptor (Cavia porcellus)
Sequence (Q60492 whole entry): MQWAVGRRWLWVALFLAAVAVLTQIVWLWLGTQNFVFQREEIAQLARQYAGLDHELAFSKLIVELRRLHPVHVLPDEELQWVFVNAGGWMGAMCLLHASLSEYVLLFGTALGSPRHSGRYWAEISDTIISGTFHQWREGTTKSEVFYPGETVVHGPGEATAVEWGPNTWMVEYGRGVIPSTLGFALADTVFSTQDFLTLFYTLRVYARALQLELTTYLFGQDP
Test summary: σ1 receptor competitive binding assay
Measurement setup: Ki σ1, (+)-isomer, guinea pig brain membranes, mean ± SEM
Value kind: pKi
One number for each entry, as −log10 of the molar value.

# input What value of pKi has been reported for the following compound? O=C(c1ccc(F)cc1)C1CCN(C2CCN(Cc3ccc(F)cc3)CC2O)CC1 (single isomer, unassigned; (+)) [(+)-14a]
# output 9.85
